# studyTarget: GRK5 (Bos taurus, UniProt P43249)
# Construct: when using full-length kinases as the receptor[37] instead of isolated kinase domains; made in house
# Sequence (P43249 whole entry, the tested form may be a part): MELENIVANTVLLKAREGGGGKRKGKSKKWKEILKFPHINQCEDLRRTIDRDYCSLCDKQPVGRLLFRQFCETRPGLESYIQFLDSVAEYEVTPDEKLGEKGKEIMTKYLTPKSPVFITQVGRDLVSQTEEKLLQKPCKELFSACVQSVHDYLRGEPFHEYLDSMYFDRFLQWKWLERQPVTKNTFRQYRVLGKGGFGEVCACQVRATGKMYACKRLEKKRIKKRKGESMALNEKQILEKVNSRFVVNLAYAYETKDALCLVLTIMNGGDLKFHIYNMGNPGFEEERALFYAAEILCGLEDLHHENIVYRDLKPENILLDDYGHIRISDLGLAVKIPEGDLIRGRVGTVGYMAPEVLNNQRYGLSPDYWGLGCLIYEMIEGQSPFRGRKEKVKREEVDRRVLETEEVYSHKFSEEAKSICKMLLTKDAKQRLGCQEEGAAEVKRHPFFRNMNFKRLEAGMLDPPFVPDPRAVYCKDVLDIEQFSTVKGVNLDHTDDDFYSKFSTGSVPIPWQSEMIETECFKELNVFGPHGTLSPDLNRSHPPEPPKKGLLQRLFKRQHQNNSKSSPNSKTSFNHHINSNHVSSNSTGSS
# runDescription: DSF retest (confirmation), GRK5
# Assay type: binding, bovine
# setupConditions: relative to intrinsic melting point of the kinase
Overview of reported GRK5 ΔTm across a group of compounds:
measureName: GRK5 ΔTm

| compound | result |
| --- | --- |
| COc1cc2c(cc1Nc1nc(Nc3ccsc3C(N)=O)c3cc[nH]c3n1)N(C(=O)CN(C)C)CCC2(C)C [GSK2163632A] | 6.3 °C |
| CN(c1ccc(NC(=O)Nc2ccc(OC(F)(F)F)cc2)cc1)c1ccnc(Nc2cccc(S(N)(=O)=O)c2)n1 [GW806742X] | 0.4 °C |
| COc1cc2c(cc1Nc1nc(Nc3ccsc3C(N)=O)c3cc[nH]c3n1)N(C(=O)CN(C)C)CCC2 [GSK2110236A] | 5.8 °C |
| CCCN1CCC(Oc2cc(Nc3nc(Nc4cccc(F)c4C(N)=O)c4cc[nH]c4n3)c(OC)cc2Cl)CC1 [GSK1713088A] | 13.6 °C |

----------
# studyTarget: protein kinase A (PKA) (Mus musculus, UniProt P05132)
# Construct: His tag (inferred from pET15b vector and Ni-NTA column) (N); host or cells: E. coli Rosetta(DE3)pLysS
# runDescription: DSF retest (confirmation), PKA
# Format: binding
# setupConditions: 0.2 mg mL^–1 kinase

| compound | PKA Tm, °C |
| --- | --- |
| CCCN1CCC(c2ccc(Nc3nc(Nc4cc(F)ccc4C(N)=O)c4cc[nH]c4n3)c(OC)c2)CC1 [GSK1326255A] | 48.5 |
| CC1=C(C(=O)Nc2cc(Cl)c3[nH]ncc3c2)C(c2ccc(C(F)(F)F)cc2)CC(=O)N1 (stereo not shown) [GSK466317A] | 50.6 |
| CC1=C(C(=O)Nc2ccc3[nH]ncc3c2)C(c2ccc(F)cc2)NC(=O)N1 (stereo not shown) [GSK180736A] | 49.2 |
| Fc1ccc([C@@H]2CCNC[C@H]2COc2ccc3c(c2)OCO3)cc1 | 50.1 |

----------
# studyTarget: GRK5 (Bos taurus)
# Construct: when using full-length kinases as the receptor[37] instead of isolated kinase domains; made in house
# runDescription: DSF retest (confirmation), GRK5
# Format: binding, bovine
# setupConditions: 0.2 mg mL^–1 kinase

| compound | studyTarget | scaleUnit | GRK5 Tm |
| --- | --- | --- | --- |
| CCCN1CCC(c2ccc(Nc3nc(Nc4cc(F)ccc4C(N)=O)c4cc[nH]c4n3)c(OC)c2)CC1 [GSK1326255A] | GRK5 (Bos taurus) | °C | 29.3 |
| CCCN1CCC(Oc2cc(Nc3nc(Nc4cccc(F)c4C(N)=O)c4cc[nH]c4n3)c(OC)cc2Cl)CC1 [GSK1713088A] | GRK5 (Bos taurus) | °C | 40.3 |
| COc1cc2c(cc1Nc1nc(Nc3ccsc3C(N)=O)c3cc[nH]c3n1)N(C(=O)CN(C)C)CCC2(C)C [GSK2163632A] | GRK5 (Bos taurus) | °C | 33.0 |
